Reference for the values: patent US20160031986A1

Examples of binders with documented Kd follow.
Target: cynomolgus monkey DLL4 extracellular domain (cynomolgus monkey)
Assay: Biacore SPR; head says nM, kd/ka gives M
Quick note: give the figure in nM, leave out the unit.

# Binder, Kd (nM)
measured = [
    ("h1A11.H2 (antibody, V domains shown) VH: EVQLVESGGGLVQPGGSLRLSCAASGFTFGNFPMSWVRQAPGKGLEWVASISSSDSWATIGDSVKGRFTISRDNAKNSLYLQMNSLRAEDTAVYYCARGYYNSPFAFWGQGTLVTVSS VL: DIQMTQSPSSLSASVGDRVTITCRASQEIYRNLAWYQQKPGKSPKLLIFDTSVLADGVPSRFSGSGSGTDSTLTISSLQPEDFATYYCQQYTYYPPTFGQGTKLEIK", 0.35),
    ("h1A11.A11 (antibody, V domains shown) VH: EVQLVESGGGLVQPGGSLRLSCAASGFTFRHFPMAWVRQAPGKGLEWVATISSSDDWPNYRDSVKGRFTISRDNAKSSLYLQMNSLRAEDTAVYYCSRGYYNSPFAYWGQGTLVTVSS VL: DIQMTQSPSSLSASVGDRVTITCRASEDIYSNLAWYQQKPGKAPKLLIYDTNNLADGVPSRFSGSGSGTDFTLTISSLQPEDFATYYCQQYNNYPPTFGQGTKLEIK", 0.2),
    ("h1A11.A7 (antibody, V domains shown) VH: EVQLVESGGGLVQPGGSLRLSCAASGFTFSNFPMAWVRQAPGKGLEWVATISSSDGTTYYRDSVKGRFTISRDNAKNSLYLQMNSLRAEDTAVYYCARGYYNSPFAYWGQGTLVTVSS VL: DIQMTQSPSSLSASVGDRVTITCRASQDIYINLAWYQQKPGKAPKLLIFDTSDLADGVPSRFSGSGSGTDFTLTISSLQPEDFATYYCQQYDYYPPTFGQGTKLEIK", 7.8),
    ("h1A11.A8 (antibody, V domains shown) VH: EVQLVESGGGLVQPGGSLRLSCAASGFTFGNFPMSWVRQAPGKGLEWVASISSSDSWATIGDSVKGRFTISRDNAKNSLYLQMNSLRAEDTAVYYCSRGYYNSPFAYWGQGTLVTVSS VL: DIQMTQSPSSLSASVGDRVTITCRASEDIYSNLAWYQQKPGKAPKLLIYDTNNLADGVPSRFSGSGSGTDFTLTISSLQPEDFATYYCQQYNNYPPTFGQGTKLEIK", 0.15),
]

Next up:
Consider the binder shown here: h1A11.B4 (antibody, V domains shown) VH: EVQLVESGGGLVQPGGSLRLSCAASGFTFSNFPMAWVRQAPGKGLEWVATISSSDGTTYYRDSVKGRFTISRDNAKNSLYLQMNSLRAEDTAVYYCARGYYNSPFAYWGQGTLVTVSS VL: DIQMTQSPSSLSASVGDRVTITCRASQDIYYNLAWYQQKPGKAPKLLIFDTNILADGVPSRFSGSGSGTDFTLTISSLQPEDFATYFCQQYDYVPPTFGQGTKLEIK What is its recorded Kd?
6.9
